Target Desc: T1, soluble human CD40 extracellular domain (human, UniProt P25942 21-193)
T1 construct: Produced in house; also called hCD40; soluble hCD40 extracellular domain
T1 sequence (P25942 21-193 limits assumed): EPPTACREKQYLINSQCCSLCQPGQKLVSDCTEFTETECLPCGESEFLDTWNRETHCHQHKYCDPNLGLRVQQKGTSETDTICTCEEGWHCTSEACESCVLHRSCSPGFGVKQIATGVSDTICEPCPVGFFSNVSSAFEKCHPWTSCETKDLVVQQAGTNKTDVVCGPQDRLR
Test Method Notes: SPR, Ab captured from supernatant on protein A, hCD40 ECD analyte
Kd less than 4 nM is 1 (yes); Kd greater than or equal to 4 nM is 0 (no).

Binder: M48 (HC-K63Q / LC-K45E) (antibody, human IgG1, kappa, V domains shown, IgG1-P238K; also called HC16/LC3) VH: QVQLVQSGAEVKKPGSSVKVSCKASGYAFTSYWMHWVRQAPGQGLEWMGQINPTTGRSQYNEQFKTRVTITADKSTSTAYMELSSLRSEDTAVYYCARWGLQPFAYWGQGTLVTVSS VL: DIQMTQSPSFLSASVGDRVTITCKASQDVSTAVAWYQQKPGKAPELLIYSASYRYTGVPSRFSGSGSGTDFTLTISSLQPEDFATYYCQQHYSTPWTFGGGTKVEIKR
Label Class: 1 (yes)
--
Binder: M25 (HC-K63Q,R67E / LC-K45Q) (antibody, human IgG1, kappa, V domains shown, IgG1-P238K; also called HC9/LC2) VH: QVQLVQSGAEVKKPGSSVKVSCKASGYAFTSYWMHWVRQAPGQGLEWMGQINPTTGRSQYNEQFKTEVTITADKSTSTAYMELSSLRSEDTAVYYCARWGLQPFAYWGQGTLVTVSS VL: DIQMTQSPSFLSASVGDRVTITCKASQDVSTAVAWYQQKPGKAPQLLIYSASYRYTGVPSRFSGSGSGTDFTLTISSLQPEDFATYYCQQHYSTPWTFGGGTKVEIKR
Label Class: 1 (yes)
--
Binder: M43 (HC-R57E / LC-K45E) (antibody, human IgG1, kappa, V domains shown, IgG1-P238K; also called HC11/LC3) VH: QVQLVQSGAEVKKPGSSVKVSCKASGYAFTSYWMHWVRQAPGQGLEWMGQINPTTGESQYNEKFKTRVTITADKSTSTAYMELSSLRSEDTAVYYCARWGLQPFAYWGQGTLVTVSS VL: DIQMTQSPSFLSASVGDRVTITCKASQDVSTAVAWYQQKPGKAPELLIYSASYRYTGVPSRFSGSGSGTDFTLTISSLQPEDFATYYCQQHYSTPWTFGGGTKVEIKR
Label Class: 0 (no)
--
Binder: M40 (HC-R38Q,K63Q,R67Q / LC-K45E) (antibody, human IgG1, kappa, V domains shown, IgG1-P238K; also called HC8/LC3) VH: QVQLVQSGAEVKKPGSSVKVSCKASGYAFTSYWMHWVQQAPGQGLEWMGQINPTTGRSQYNEQFKTQVTITADKSTSTAYMELSSLRSEDTAVYYCARWGLQPFAYWGQGTLVTVSS VL: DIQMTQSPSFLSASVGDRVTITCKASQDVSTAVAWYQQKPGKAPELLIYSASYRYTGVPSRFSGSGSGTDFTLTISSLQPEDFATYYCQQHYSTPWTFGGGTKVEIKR
Label Class: 1 (yes)
--
Binder: M75 (HC-R57E / LC-R61Q) (antibody, human IgG1, kappa, V domains shown, IgG1-P238K; also called HC11/LC5) VH: QVQLVQSGAEVKKPGSSVKVSCKASGYAFTSYWMHWVRQAPGQGLEWMGQINPTTGESQYNEKFKTRVTITADKSTSTAYMELSSLRSEDTAVYYCARWGLQPFAYWGQGTLVTVSS VL: DIQMTQSPSFLSASVGDRVTITCKASQDVSTAVAWYQQKPGKAPKLLIYSASYRYTGVPSQFSGSGSGTDFTLTISSLQPEDFATYYCQQHYSTPWTFGGGTKVEIKR
Label Class: 0 (no)
--
Binder: M76 (HC-R57E,K74Q / LC-R61Q) (antibody, human IgG1, kappa, V domains shown, IgG1-P238K; also called HC12/LC5) VH: QVQLVQSGAEVKKPGSSVKVSCKASGYAFTSYWMHWVRQAPGQGLEWMGQINPTTGESQYNEKFKTRVTITADQSTSTAYMELSSLRSEDTAVYYCARWGLQPFAYWGQGTLVTVSS VL: DIQMTQSPSFLSASVGDRVTITCKASQDVSTAVAWYQQKPGKAPKLLIYSASYRYTGVPSQFSGSGSGTDFTLTISSLQPEDFATYYCQQHYSTPWTFGGGTKVEIKR
Label Class: 0 (no)
--
Binder: M56 (HC-R38Q,K63Q,R67Q / LC-K45Q,R54Q,R61Q) (antibody, human IgG1, kappa, V domains shown, IgG1-P238K; also called HC8/LC4) VH: QVQLVQSGAEVKKPGSSVKVSCKASGYAFTSYWMHWVQQAPGQGLEWMGQINPTTGRSQYNEQFKTQVTITADKSTSTAYMELSSLRSEDTAVYYCARWGLQPFAYWGQGTLVTVSS VL: DIQMTQSPSFLSASVGDRVTITCKASQDVSTAVAWYQQKPGKAPQLLIYSASYQYTGVPSQFSGSGSGTDFTLTISSLQPEDFATYYCQQHYSTPWTFGGGTKVEIKR
Label Class: 1 (yes)
